This collection of values is drawn from ChEMBL document CHEMBL1240346.

assay_info: in vivo
experimental_parameters: nu/nu, mouse, po, 10 mg/kg
measured_property: Cmax (nM)
One number for each entry, in nM.

[
  {
    "smiles_string": "CO[C@@H]1[C@H](N(C)C(=O)c2ccccc2)C[C@H]2O[C@]1(C)n1c3ccccc3c3c4c(c5c6ccccc6n2c5c31)C(=O)N[C@H]4O",
    "observed_result": 2300
  }
]

Okay, now this compound:
Consider the compound "COc1cc2c(N3CCN(C(=O)Nc4ccc(OC(C)C)cc4)CC3)ncnc2cc1OCCCN1CCCCC1" and give its measured Cmax.
81

----------
assay_info: in vitro
experimental_parameters: human, A375 cells
Description: Toxicity against human A375 cells after 72 hrs by cell titer-blue assay
measured_property: IC50 at 72 h (nM)
Answers are plain numbers, in nM.

Please give the measured IC50 at 72 h for this compound: "CO[C@@H]1[C@H](N(C)C(=O)c2ccccc2)C[C@H]2O[C@]1(C)n1c3ccccc3c3c4c(c5c6ccccc6n2c5c31)C(=O)N[C@H]4O"
530

----------
Record form. Attribute: Tmax. Fill in for each entry.
assay_info: in vivo
experimental_parameters: nu/nu, mouse, po, 10 mg/kg
Numbers only, in min.

[
  {
    "smiles_string": "CO[C@@H]1[C@H](N(C)C(=O)c2ccccc2)C[C@H]2O[C@]1(C)n1c3ccccc3c3c4c(c5c6ccccc6n2c5c31)C(=O)N[C@H]4O",
    "measured_property": "Tmax",
    "observed_result": 40.2
  }
]

Next compound, Tmax to be filled in.
Given "COc1cc2c(N3CCN(C(=O)Nc4ccc(OC(C)C)cc4)CC3)ncnc2cc1OCCCN1CCCCC1" , state its recorded Tmax.
60
